Numbers sourced from ChEMBL document CHEMBL4689842.

test system: HEK-293T; assay: Multiplex assay against HEK293T; format: toxicity, cell-based; settings: human, 48 h, 1 µM, compound concentration 1 uM, replicate 1
VALUE_KIND: Population Pyknosed Nuclei (%)

{"COMPOUND": "CC(C)OC(=O)N1CCC(Oc2ncnc3c2cnn3-c2ccc(S(C)(=O)=O)cc2F)CC1", "VALUE_KIND": "Population Pyknosed Nuclei (%)", "OBSERVED_MEASUREMENT": 36}
{"COMPOUND": "CCc1ccc(OCc2ccccc2C(=O)Nc2ccc3nc(C)cc(N)c3c2)cc1.Cl", "VALUE_KIND": "Population Pyknosed Nuclei (%)", "OBSERVED_MEASUREMENT": 70}
{"COMPOUND": "Cc1ccc(C)c(Oc2ccncc2C(=O)N2CCN(C3CC3)c3ccccc32)c1", "VALUE_KIND": "Population Pyknosed Nuclei (%)", "OBSERVED_MEASUREMENT": 26}
{"COMPOUND": "CC(C)(C)NC[C@H](O)COc1nsnc1N1CCOCC1 [TIMOLOL]", "VALUE_KIND": "Population Pyknosed Nuclei (%)", "OBSERVED_MEASUREMENT": 34}
{"COMPOUND": "Cc1cccc(CN2CCN(C(c3ccccc3)c3ccc(Cl)cc3)CC2)c1.Cl.Cl (centres undefined)", "VALUE_KIND": "Population Pyknosed Nuclei (%)", "OBSERVED_MEASUREMENT": 47}
{"COMPOUND": "Cl.O=C(O)c1cc(-c2ccc(C3CCNCC3)cc2)c2ccc(-c3ccc(C(F)(F)F)cc3)cc2c1", "VALUE_KIND": "Population Pyknosed Nuclei (%)", "OBSERVED_MEASUREMENT": 47}
{"COMPOUND": "CCCSc1nc(N[C@@H]2C[C@H]2c2ccc(F)c(F)c2)c2nnn([C@@H]3C[C@H](OCCO)[C@@H](O)[C@H]3O)c2n1 [TICAGRELOR]", "VALUE_KIND": "Population Pyknosed Nuclei (%)", "OBSERVED_MEASUREMENT": 36}
{"COMPOUND": "CNC(=O)Nc1ccc(-c2nc(N3CC4CCC(C3)O4)c3cnn(C4CCC5(CC4)OCCO5)c3n2)cc1", "VALUE_KIND": "Population Pyknosed Nuclei (%)", "OBSERVED_MEASUREMENT": 50}
{"COMPOUND": "CC(C)NC(=O)N1CC[C@H](NC2=Nc3cc(F)ccc3N(CC(F)F)c3ccc(Cl)cc32)C1", "VALUE_KIND": "Population Pyknosed Nuclei (%)", "OBSERVED_MEASUREMENT": 40}

====

tested on: HEK-293T; assay: Multiplex assay against HEK293T; assay type: toxicity, cell-based; conditions: human, 48 h, 1 µM, compound concentration 1 uM, replicate 1
VALUE_KIND: Population Membrane Permeable-Phenotype (%)

{"STRUCTURE_AS_SMILES": "CNC(=O)Nc1ccc(-c2nc(N3CC4CCC(C3)O4)c3cnn(C4CCC5(CC4)OCCO5)c3n2)cc1", "OBSERVED_MEASUREMENT": "0%"}
{"STRUCTURE_AS_SMILES": "COc1ccc(-c2ccc3ncc4c(c3c2)n(-c2ccc(N3CCNCC3)c(C(F)(F)F)c2)c(=O)n4C)cn1.O=C(O)/C=C\\C(=O)O", "OBSERVED_MEASUREMENT": "0%"}
{"STRUCTURE_AS_SMILES": "CC(C)OC(=O)N1CCC(Oc2ncnc3c2cnn3-c2ccc(S(C)(=O)=O)cc2F)CC1", "OBSERVED_MEASUREMENT": "5%"}
{"STRUCTURE_AS_SMILES": "CN1CCN(Cc2ccc(Nc3ncc(Cl)c(Nc4ccccc4S(=O)(=O)N(C)C)n3)cc2)CC1", "OBSERVED_MEASUREMENT": "4%"}
